molecular target: pooled human liver microsomes (pHLMs) (Homo sapiens, UniProt P05177); assay: EROD counterscreen in pooled human liver microsomes; type: biochemical; conditions: human, microsomes, Table 3; read-out: IC50 pHLM
Sequence (P05177 2-516): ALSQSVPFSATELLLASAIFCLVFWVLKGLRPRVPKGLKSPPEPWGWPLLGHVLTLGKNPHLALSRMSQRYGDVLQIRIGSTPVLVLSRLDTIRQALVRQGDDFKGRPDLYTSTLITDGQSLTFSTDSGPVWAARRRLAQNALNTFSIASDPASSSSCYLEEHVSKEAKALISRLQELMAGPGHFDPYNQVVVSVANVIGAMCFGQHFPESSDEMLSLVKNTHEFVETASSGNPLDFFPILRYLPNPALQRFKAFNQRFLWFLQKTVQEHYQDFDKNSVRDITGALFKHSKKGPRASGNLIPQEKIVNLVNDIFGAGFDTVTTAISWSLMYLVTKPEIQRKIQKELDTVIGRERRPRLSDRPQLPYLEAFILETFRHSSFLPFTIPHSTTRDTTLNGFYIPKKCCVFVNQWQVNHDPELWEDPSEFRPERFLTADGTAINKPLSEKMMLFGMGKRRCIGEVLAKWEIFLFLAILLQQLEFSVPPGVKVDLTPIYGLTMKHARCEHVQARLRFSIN
readout type: IC50

Solved cases (5 shown):
COc1cc(-c2nc3ccc(I)cc3c(=O)[nH]2)ccc1OCC#N [GL551] | > 3 µM
CC(C)(C)OC(=O)NCCCOc1nc(-c2ccc(OCC#N)cc2)nc2ccccc12 [GL571] | > 10 µM
N#CCOc1ccc(-c2nc(OCCCN)c3ccccc3n2)cc1 [GL572] | > 10 µM
N#CCOc1ccc(-c2nc(OCCCNC(=O)OCCOCCOCCOC(=O)NC34CC5CC(CC(C5)C3)C4)c3ccccc3n2)cc1 [GL581] | > 10 µM
COc1ccc(-c2nc3ccccc3c(=O)n2C)c(OC)c1 [GL517] | 146 µM

Please state recorded IC50 (tested on pooled human liver microsomes (pHLMs) (Homo sapiens, UniProt P05177)) of N#CCOc1ccc(-c2nc(OCCCCCCN=[N+]=[N-])c3ccccc3n2)cc1 [GL565] > 10 µM

Please state recorded IC50 (tested on pooled human liver microsomes (pHLMs) (Homo sapiens, UniProt P05177)) of N#CCOc1ccc(-c2nc(OCCCCCCBr)c3ccccc3n2)cc1 [GL564] > 10 µM

Please state recorded IC50 (tested on pooled human liver microsomes (pHLMs) (Homo sapiens, UniProt P05177)) of N#CCOc1ccc(-c2nc3ccccc3c(=O)[nH]2)cc1 [GL520] 1.74 µM

Please state recorded IC50 (tested on pooled human liver microsomes (pHLMs) (Homo sapiens, UniProt P05177)) of COc1cc(-c2nc3ccccc3c(=O)[nH]2)ccc1OCC#N [GL522] > 10 µM

Please state recorded IC50 (tested on pooled human liver microsomes (pHLMs) (Homo sapiens, UniProt P05177)) of COc1cc(OCC#N)ccc1-c1nc2ccccc2c(=O)[nH]1 [GL521] > 10 µM
